test system: Female SA rats; assay: Liver toxicity assay; type: in vivo; details: rat, i.v. infusion, total dose 75 μmole/kg, serum
Structures can show the parent of a compound that is named as a salt.
Give SGPT for every item shown.
Reply with just the number (in IU/L).

# assay system Female SA rats: give SGPT of NC[C@H]1O[C@@H](n2nc(Br)c3c(N)ncnc32)[C@H](O)[C@@H]1O [REF.B, HCL, reference compound] 41

# assay system Female SA rats: give SGPT of CCN(CC)CCc1ccc(Nc2ncnc3c2c(-c2ccccc2)cn3[C@@H]2O[C@H](C)[C@@H](O)[C@H]2O)cc1 [Compound 6] 110

# assay system Female SA rats: give SGPT of OC[C@@H]1O[C@@H](n2cc(-c3ccccc3)c3c(Nc4ccc(CCN5CCNCC5)cc4)ncnc32)[C@H](O)[C@@H]1O [Compound 12] 76

# assay system Female SA rats: give SGPT of C[C@H]1O[C@@H](n2cc(I)c3c(N)ncnc32)[C@H](O)[C@@H]1O [REF.A, reference compound] 76

# assay system Female SA rats: give SGPT of C[C@H]1O[C@@H](n2cc(-c3ccccc3)c3c(Nc4ccc(CN(C)C)cc4)ncnc32)[C@H](O)[C@@H]1O [Compound 1] 44
